// provenance: ChEMBL document CHEMBL5620342

- System: BaF3
- test name: Antiproliferative activity against mouse BaF3 cells harboring EGFR L858R/T790M/C797S triple mutant after 72 hrs by resazurin dye-based fluorescence assay
- Assay type: functional, cell-based
- measurement conditions: BaF3, 72 h
observation type: pIC50
To interpret pIC50, take it as minus log10 of a concentration measured in moles per litre.

C=CC(=O)Nc1cc(Nc2nccc(-c3cn(C)c4ccccc34)n2)c(OC)cc1N(C)CCN(C)C ... 5.38

Next:
What is its pIC50 for BaF3? Entry: CN1CCN(c2ccc(Nc3ncc(Cl)c(Nc4ccccc4P(C)(C)=O)n3)c(Br)c2)CC1
6.92

---

- experimental target: Epidermal growth factor receptor (Homo sapiens, UniProt P00533, C797S/L858R/T790M)
- Sequence (P00533 25-1210 T790M/C797S/L858R limits assumed): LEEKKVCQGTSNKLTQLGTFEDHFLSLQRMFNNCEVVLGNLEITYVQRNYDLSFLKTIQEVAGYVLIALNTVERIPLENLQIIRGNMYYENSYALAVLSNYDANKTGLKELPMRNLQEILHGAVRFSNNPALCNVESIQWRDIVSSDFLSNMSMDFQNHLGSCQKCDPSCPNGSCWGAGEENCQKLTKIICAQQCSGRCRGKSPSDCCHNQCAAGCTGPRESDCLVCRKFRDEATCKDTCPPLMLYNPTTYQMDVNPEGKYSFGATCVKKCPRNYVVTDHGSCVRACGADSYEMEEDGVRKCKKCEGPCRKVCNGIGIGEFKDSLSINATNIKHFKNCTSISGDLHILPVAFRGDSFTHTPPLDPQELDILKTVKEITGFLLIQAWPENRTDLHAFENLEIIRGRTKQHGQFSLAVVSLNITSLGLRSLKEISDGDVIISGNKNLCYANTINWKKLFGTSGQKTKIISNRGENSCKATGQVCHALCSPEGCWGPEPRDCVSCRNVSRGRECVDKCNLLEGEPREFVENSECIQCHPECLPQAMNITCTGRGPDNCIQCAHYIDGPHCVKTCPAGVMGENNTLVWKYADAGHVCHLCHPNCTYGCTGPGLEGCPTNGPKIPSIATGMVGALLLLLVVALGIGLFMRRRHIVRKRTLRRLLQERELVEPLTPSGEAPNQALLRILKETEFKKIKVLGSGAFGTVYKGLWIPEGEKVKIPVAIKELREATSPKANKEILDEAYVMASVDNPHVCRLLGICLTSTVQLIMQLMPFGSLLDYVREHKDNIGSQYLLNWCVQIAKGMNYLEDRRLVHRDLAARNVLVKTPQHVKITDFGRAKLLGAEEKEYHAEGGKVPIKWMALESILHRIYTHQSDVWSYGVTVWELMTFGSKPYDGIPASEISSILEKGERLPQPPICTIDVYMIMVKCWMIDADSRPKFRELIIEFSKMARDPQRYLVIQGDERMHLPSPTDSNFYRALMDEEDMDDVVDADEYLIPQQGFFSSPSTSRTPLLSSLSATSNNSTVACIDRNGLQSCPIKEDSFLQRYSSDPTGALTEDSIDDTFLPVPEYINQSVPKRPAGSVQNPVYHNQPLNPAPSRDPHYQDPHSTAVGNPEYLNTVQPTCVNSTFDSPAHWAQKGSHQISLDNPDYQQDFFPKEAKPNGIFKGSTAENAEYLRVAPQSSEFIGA
- test name: Inhibition of EGFR L858R/T790M/C797S triple mutant (unknown origin) expressed in Bac-to-Bac baculovirus expression system measured after 2 hrs by ELISA method
observation type: pIC50
To interpret pIC50, take it as minus log10 of a concentration measured in moles per litre.

Which pIC50 reading was recorded for the molecule CC(C)n1c2cc(Nc3ccnc(-c4cnn(S(=O)(=O)C5CC5)c4)n3)ncc2c2c(OCC(F)(F)F)cc(N3CCN(C)CC3)cc21 ?
9.55

---

- experimental target: Epidermal growth factor receptor (Homo sapiens, UniProt P00533, T790M/C797S/L858R)
- Sequence (P00533 25-1210 T790M/C797S/L858R limits assumed): as above
- test name: Inhibition of […]/T790M/C797S triple mutant (unknown origin) phosphorylation expressed in mouse BaF3 cells by HTRF assay
- Format: cell-based
- measurement conditions: baf3
observation type: pIC50
To interpret pIC50, take it as minus log10 of a concentration measured in moles per litre.

Which pIC50 reading was recorded for the compound CNC(=O)c1cnc(Nc2ccnc(N3CCC(O)CC3)n2)cc1NC(C)C ?
6.58

---

- Test system: NIH3T3
- test name: Antiproliferative activity against mouse NIH3T3 cells expressing EGFR Del19/T790M/C797S mutant assessed as reduction in cell proliferation incubated for 72 hrs by MTT assay
- Type: functional, cell-based
- measurement conditions: NIH3T3, 72 h
observation type: IC50 (nM)
Give a bare numeral; the unit nM is implied.

Which IC50 reading was recorded for the molecule CC(C)n1c2cc(Nc3ccnc(-c4cnn(S(=O)(=O)C5CC5)c4)n3)ncc2c2c(OCC(F)(F)F)cc(N3CCN(C)CC3)cc21 ?
20

---

- System: BaF3
- test name: Cytotoxicity against mouse BaF3 cells expressing EGFR L858R mutant assessed as reduction in cell viability
- Type: functional, cell-based
observation type: pIC50
To interpret pIC50, take it as minus log10 of a concentration measured in moles per litre.

Which pIC50 reading was recorded for the compound COc1cc(N2CCN(C(C)=O)CC2)ccc1Nc1ncc(Cl)c(Nc2ccc(NCc3ccc(S(=O)(=O)F)cc3)cc2)n1 ?
6.96

---

- experimental target: Epidermal growth factor receptor (Homo sapiens, UniProt P00533, C797S/L858R/T790M)
- test name: Inhibition of […]/T790M/C797S triple mutant (unknown origin) phosphorylation expressed in mouse BaF3 cells by HTRF assay
- Assay type: cell-based
observation type: pIC50
To interpret pIC50, take it as minus log10 of a concentration measured in moles per litre.

CN1CCN(c2ccc(Nc3ncc4cc(CNc5ccccc5)n(C5CCCC5)c4n3)cc2)CC1 ... 8.00

Next:
Which pIC50 reading was recorded for the compound CC(C)n1c2cc(Nc3ccnc(-c4cnn(S(=O)(=O)C5CC5)c4)n3)ncc2c2c(OCC(F)(F)F)cc(N3CCN(C)CC3)cc21 ?
9.60
